Let's look at some binders and their measured kd var/kd wt.
target: T1, human TGFβ1 (human, UniProt P01137 279-390); assay: Biacore off-rate vs wt GC1008, 50 nM
T1 construct: also called TGFβ1 homodimer
T1 sequence (P01137 279-390 limits assumed): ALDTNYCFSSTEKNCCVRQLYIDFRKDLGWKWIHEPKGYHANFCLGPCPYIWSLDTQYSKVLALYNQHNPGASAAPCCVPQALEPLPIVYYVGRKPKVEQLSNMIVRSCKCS
Enter a number only.

Q: Dear colleague, I am looking for the recorded kd var/kd wt of the following binder: I54T (antibody, V domains shown, GC1008 IgG4 variant) VH: QVQLVQSGAEVKKPGSSVKVSCKASGYTFSSNVISWVRQAPGQGLEWMGGVIPTVDIANYAQRFKGRVTITADESTSTTYMELSSLRSEDTAVYYCASTLGLVLDAMDYWGQGTLVTVSS VL: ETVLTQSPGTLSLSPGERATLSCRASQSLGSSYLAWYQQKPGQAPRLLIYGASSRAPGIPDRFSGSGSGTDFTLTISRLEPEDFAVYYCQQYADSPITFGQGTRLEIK
Result: 2.1

Q: Dear colleague, I am looking for the recorded kd var/kd wt of the following binder: I54H (antibody, V domains shown, GC1008 IgG4 variant) VH: QVQLVQSGAEVKKPGSSVKVSCKASGYTFSSNVISWVRQAPGQGLEWMGGVIPHVDIANYAQRFKGRVTITADESTSTTYMELSSLRSEDTAVYYCASTLGLVLDAMDYWGQGTLVTVSS VL: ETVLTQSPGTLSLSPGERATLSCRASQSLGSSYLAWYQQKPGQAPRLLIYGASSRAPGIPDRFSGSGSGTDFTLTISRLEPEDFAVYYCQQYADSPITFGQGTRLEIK
Result: 2.1

Q: Dear colleague, I am looking for the recorded kd var/kd wt of the following binder: N32L (antibody, V domains shown, GC1008 IgG4 variant) VH: QVQLVQSGAEVKKPGSSVKVSCKASGYTFSSLVISWVRQAPGQGLEWMGGVIPIVDIANYAQRFKGRVTITADESTSTTYMELSSLRSEDTAVYYCASTLGLVLDAMDYWGQGTLVTVSS VL: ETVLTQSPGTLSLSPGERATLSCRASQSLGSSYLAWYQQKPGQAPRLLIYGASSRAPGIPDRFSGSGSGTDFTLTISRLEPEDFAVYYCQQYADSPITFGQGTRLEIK
Result: 1.6

Q: Dear colleague, I am looking for the recorded kd var/kd wt of the following binder: S31P (antibody, V domains shown, GC1008 IgG4 variant) VH: QVQLVQSGAEVKKPGSSVKVSCKASGYTFSPNVISWVRQAPGQGLEWMGGVIPIVDIANYAQRFKGRVTITADESTSTTYMELSSLRSEDTAVYYCASTLGLVLDAMDYWGQGTLVTVSS VL: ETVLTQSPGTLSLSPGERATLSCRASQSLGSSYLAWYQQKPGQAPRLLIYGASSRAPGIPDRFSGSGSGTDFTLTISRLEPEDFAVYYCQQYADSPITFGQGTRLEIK
Result: 1.5

// below: kd var/kd wt requested for another binder
Q: Dear colleague, I am looking for the recorded kd var/kd wt of the following binder: E74H (antibody, V domains shown, GC1008 IgG4 variant) VH: QVQLVQSGAEVKKPGSSVKVSCKASGYTFSSNVISWVRQAPGQGLEWMGGVIPIVDIANYAQRFKGRVTITADHSTSTTYMELSSLRSEDTAVYYCASTLGLVLDAMDYWGQGTLVTVSS VL: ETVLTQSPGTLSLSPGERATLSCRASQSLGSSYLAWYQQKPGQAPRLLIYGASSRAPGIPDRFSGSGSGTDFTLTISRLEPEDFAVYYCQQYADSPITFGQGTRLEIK
Result: 0.9
